So I've got a bunch of binders here, and I need their optical density values.
molecular target: human ACVR2A (human, UniProt P27037 20-135, limits assumed); assay: ELISA; note: test concentration or dose not given here
Sequence (P27037 20-135 limits assumed): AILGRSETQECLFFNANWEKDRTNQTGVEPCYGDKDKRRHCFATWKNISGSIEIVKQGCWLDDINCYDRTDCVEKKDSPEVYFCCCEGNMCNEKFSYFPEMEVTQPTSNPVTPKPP
Answers are plain numbers, in OD.

Below, 2 binders whose answers are already recorded.
375_G07 (antibody, V domains shown, VH/VL only) VH: EVQLLESGGGLVQPGGSLRLSCAASGFTFDSYSMNWVRQAPGKGLEWVAGINYNSGYTSYADSVKGRFTISRDNSKNTLYLQMNSLRAEDTAVYYCARSATWHDTHLDYWGQGTLVTVSS VL: DIQMTQSPSSLSASVGDRVTITCRASQSILSYLNWYQQKPGKAPKLVIYAATSLASGVPSRFSGSGSGTDFTLTISSLQPEDFATYYCQQSYDLPLTFGGGTKVEIK	3.63
373_B03 (antibody, V domains shown, VH/VL only) VH: EVQLLESGGGLVQPGGSLRLSCAASGFTFSSYSMNWVRQAPGKGLEWVAGINYNSGYKSYADSVKGRFTISRDNSKNTLYLQMNSLRAEDTAVYYCARSATWHDTHLDYWGQGTLVTVSS VL: DIQMTQSPSSLSASVGDRVTITCRASQSILTYLNWYQQKPGKAPKLVIYAATSLASGVPSRFSGSGSGTDFTLTISSLQPEDFATYYCQQSYDNPLTFGGGTKVEIK	3.64

Consider the binder 375_D12 (antibody, V domains shown, VH/VL only) VH: EVQLLESGGGLVQPGGSLRLSCAASGFTFDSYGMNWVRQAPGKGLEWVSSINYNSGYTSYADSVKGRFTISRDNSKNTLYLQMNSLRAEDTAVYYCARSANWHDTALDYWGQGTLVTVSS VL: DIQMTQSPSSLSASVGDRVTITCRASQSILTYVNWYQQKPGKAPKLVIYAATSRASGVPSRFSGSGSGTDFTLTISSLQPEDFATYYCQQSYETPLTFGGGTKVEIK and give its measured optical density.
3.24
